// values below are reported melting point
readout-name: melting point

                            smiles_notation  experimental_result
0  O=C(Nc1nc(-c2ccoc2)c(C(=O)C2CCOCC2)s1)C1CC1        231 to 232 °C
1  O=C(Nc1nc(-c2ccco2)c(C(=O)c2ccccn2)s1)c1cncc(Br)c1        259 to 262 °C
2  N#Cc1ccc(C(=O)Nc2nc(-c3ccco3)c(C(=O)c3cccnc3)s2)cc1        288 to 290 °C
3  O=C(Nc1nc(-c2ccco2)c(C(=O)c2ccccn2)s1)c1ccccc1        165 to 171 °C
4  Cc1csc(C(=O)c2sc(NC(=O)c3ccncc3)nc2-c2ccco2)n1        250 to 255 °C
5  O=C(Nc1nc(-c2ccco2)c(C(=O)C2CCOCC2)s1)c1cc(F)ccc1F        172 to 174 °C
6  O=C(Nc1nc(-c2ccco2)c(C(=O)c2ccn(Cc3ccccc3)c2)s1)c1ccncc1        175 to 178 °C
7  O=C(Nc1nc(-c2ccco2)c(C(=O)c2ccnc(N3CCOCC3)c2)s1)c1ccncc1        270 to 273 °C

Reference source: patent US7718808B2
